Molecular target: T1, KAS-1 FRET peptide Z-RGVVNASSRLAK-X (not fully specified)
T1 chain: RGVVNASSRLAK
measured attribute: Relative proteolytic activity

soluble recombinant human ADAM15, active form (protein) DVVTETKTVELVIVADHSEAQKYRDFQHLLNRTLEVALLLDTFFRPLNVRVALVGLEAWTQRDLVEISPNPAVTLENFLHWRRAHLLPRLPHDSAQLVTGTSFSGPTVGMAIQNSICSPDFSGGVNMDHSTSILGVASSIAHELGHSLGLDHDLPGNSCPCPGPAPAKTCIMEASTDFLPGLNFSNCSRRALEKALLDGMGSCLFERL	***
